- SYSTEM: UniProtKB P51449
- ASSAY_METHOD_TEXT: RORγt reporter assay (GAL4-RORγt LBD luciferase in HEK293T cells)
- Assay type: cell-based
- TEST_CONTEXT: HEK293T cells, 24 hours compound treatment
- From the text: A reporter assay was used to test functional activity of RORγt modulatory compounds on transcriptional activation driven by the RORγt LBD. Cells used in the assay were co-transfected with two constructs. The first construct, pBIND-RORγt LBD, contained the wild type human RORγt LBD fused to the DNA binding domain of the GAL4 protein. The second construct, pGL4.31 (Promega Cat no. C935A), contained multiple GAL4 responsive DNA elements upstream of firefly luciferase. […]
ENDPOINT_LABEL: IC50 (µM)

>  <COMPOUND>
COc1nc2ccc(C(O)(c3ccc(C#N)cc3)c3cncn3C)cc2c(C#N)c1Cc1ccc(-n2cccn2)cc1 (single isomer, unassigned) [Example 76C]

>  <EXPERIMENTAL_VALUE>
0.045

$$$$

1 = OC(c1cccnc1)(c1ccc2nc(Cl)c(Cc3cccc(Cl)c3)cc2c1)c1cncs1 (stereo not shown)
2 = COc1nc2ccc(C(O)(c3cnnn3C)c3cnc(C)n3C)cc2c(C#N)c1Cc1ccc(C(F)(F)F)cc1 (stereo not shown) [Example 81A]
Record comparison, field IC50: mark the lower of 1 and 2 . Selection: enter the item's label. 2

---

- Test system: IL-17 production by CD4 T cells
- ASSAY_METHOD_TEXT: Human Th17 assay (IL-17 production by CD4 T cells under Th17 differentiation)
- Type: cell-based
- TEST_CONTEXT: human CD4+ T cells, IL-17 after 3 days; read-out: Human Th17 Assay, IC50 μM
- From the text: The human Th17 assay tests the effect of RORγt modulatory compounds on IL-17 production by CD4 T cells under conditions which favor Th17 differentiation. Total CD4^+ T cells were isolated from the peripheral blood mononuclear cells (PBMC) of healthy donors using a CD4^+ T cell isolation kit II, following the manufacturer's instructions (Miltenyi Biotec). […] The plate was read using Sector Imager 6000, and IL-17 concentration was extrapolated from the standard curve. […]
ENDPOINT_LABEL: IC50 (µM)

>  <COMPOUND>
COc1nc2ccc(C(O)(c3cnnn3C)c3cnc(C)n3C)cc2c(Cl)c1Cc1ccc(C(F)(F)F)cc1 (single isomer, unassigned) [Example 80C]

>  <IC50, µM>
0.002

$$$$

A = COc1nc2ccc(C(O)(c3cnnn3C)C3CN(C(C)=O)C3)cc2c(Cl)c1Cc1ccc(C(F)(F)F)cc1 (single isomer, unassigned) [Example 97B]
B = Cc1cc(C(O)(c2ccc(C#N)cc2)c2cncn2C)cc2c(C#N)c(Cc3ccc(-n4cccn4)cc3)c(C#N)nc12 (single isomer, unassigned) [Example 66C]
Record comparison, field IC50: mark the lower of A and B . Selection: enter the item's label. A

---

- SYSTEM: human RORγt ligand binding domain (RORγt LBD) (Homo sapiens (Human), UniProt P51449)
- Sequence (P51449 other isoform, or with tags, fused parts or gaps): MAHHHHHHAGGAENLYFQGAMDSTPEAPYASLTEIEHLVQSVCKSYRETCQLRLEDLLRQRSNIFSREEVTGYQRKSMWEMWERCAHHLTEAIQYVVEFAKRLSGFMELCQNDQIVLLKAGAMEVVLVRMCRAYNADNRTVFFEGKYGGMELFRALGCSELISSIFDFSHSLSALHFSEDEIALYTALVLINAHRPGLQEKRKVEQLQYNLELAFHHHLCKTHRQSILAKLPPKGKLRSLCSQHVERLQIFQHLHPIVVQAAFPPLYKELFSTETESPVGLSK
- ASSAY_METHOD_TEXT: RORγt ThermoFluor assay (thermal shift binding affinity)
- TEST_CONTEXT: estimated from thermal shift
ENDPOINT_LABEL: Kd (nM)

1 = COc1nc2ccc(C(O)(c3ccc(C(F)(F)F)nc3)c3cncn3C)cc2c(Cl)c1Cc1cc2ccccc2s1 (single isomer, unassigned) [Example 37B]
2 = COc1ccc(C(O)(c2ccc3nc(OC)c(Cc4ccc(-n5cccn5)cc4)c(Cl)c3c2)c2cncs2)cn1 (single isomer, unassigned) [Example 20B]
3 = Cn1cncc1C(O)(c1ccc(C(F)(F)F)nc1)c1ccc2nc(Cl)c(Cc3ccc(-n4cccn4)cc3)c(Cl)c2c1 (centres unmarked) [Example 23]
4 = Cc1ccc(C(O)(c2ccc3nc(C#N)c(Cc4ccc(C(F)(F)F)cc4)c(C#N)c3c2)c2cnnn2C)c(C)n1 (single isomer, unassigned) [Example 88B]
5 = Cc1nc2ccc(C(O)(c3ccc(Cl)cc3)c3cncn3C)cc2c(C)c1Cc1ccccc1 (centres unmarked) [Example 50]
Re-order the entries listed above so their Kd values fall from first to last. // respond by listing labels in the order requested 5, 1, 4, 3, 2

---

- SYSTEM: human RORγt LBD (Homo sapiens (Human))
- ASSAY_METHOD_TEXT: RORγt reporter assay (GAL4-RORγt LBD luciferase in HEK293T cells)
- Format: cell-based
- TEST_CONTEXT: HEK293T cells, 24 hours compound treatment
Reported values of IC50 for individual entries

State, in one line, measured IC50 of CCOc1nc2ccc(C(O)(c3cncs3)c3cncn3C)cc2cc1Cc1ccc(OC)cc1 (stereo not drawn) > 6 µM

State, in one line, measured IC50 of COc1ccc(Cc2c(OC)nc3ccc(C(O)(c4ccc(Cl)cc4)c4cncn4C)cc3c2Cl)cc1 (stereo not drawn) ~1 µM

State, in one line, measured IC50 of COc1ccc(C(O)(c2ccc3nc(Cl)c(Cc4ccccc4)c(Cl)c3c2)c2cncs2)cn1 (stereo not drawn) > 6 µM

---

- SYSTEM: human RORγt LBD (Homo sapiens (Human), UniProt P51449)
- ASSAY_METHOD_TEXT: RORγt reporter assay (GAL4-RORγt LBD luciferase in HEK293T cells)
- Type: cell-based
- TEST_CONTEXT: HEK293T cells, 24 hours compound treatment
ENDPOINT_LABEL: IC50 (µM)

>  <COMPOUND>
COc1nc2c(C)cc(C(O)(c3ccc(Cl)cc3)c3cncn3C)cc2c(Cl)c1Cc1ccc(-n2cccn2)cc1 (stereo not shown) [Example 28A]

>  <UNIT_DESCRIPTOR>
µM

>  <IC50>
0.18

$$$$
>  <COMPOUND>
Cn1cncc1C(O)(c1ccc(C(F)(F)F)nc1)c1ccc2nc(N3CCC3)c(Cc3ccc(C(F)(F)F)cc3)c(Cl)c2c1 (single isomer, unassigned) [Example 92B]

>  <UNIT_DESCRIPTOR>
µM

>  <IC50>
0.1

$$$$
>  <COMPOUND>
CON(C)c1nc2ccc(C(O)(c3ccc(C(F)(F)F)nc3)c3cncn3C)cc2c(Cl)c1Cc1ccc(-n2cccn2)cc1 (single isomer, unassigned) [Example 67C]

>  <UNIT_DESCRIPTOR>
µM

>  <IC50>
0.12

$$$$
>  <COMPOUND>
COc1nc2ccc(C(O)(c3ccccc3)C3CCN(C(C)=O)CC3)cc2c(Cl)c1Cc1ccc(-n2cccn2)cc1 (single isomer, unassigned) [Example 83C]

>  <UNIT_DESCRIPTOR>
µM

>  <IC50>
0.14

$$$$

a = CCc1nc2ccc(C(O)(c3cnnn3C)C3CN(C(C)=O)C3)cc2c(Cl)c1Cc1ccc(C(F)(F)F)cc1 (single isomer, unassigned) [Example 90C]
b = COc1nc2c(OC)cc(C(O)(c3ccc(C(F)(F)F)nc3)c3cncn3C)cc2c(Cl)c1Cc1ccc(-n2cccn2)cc1 (single isomer, unassigned) [Example 59B]
c = COc1nc2ccc(C(O)(c3ccc(C(F)(F)F)nc3)c3cncn3C)cc2c(Cl)c1Cc1ccc(C(F)(F)F)nc1 (stereo not shown) [Example 94A]
Highest IC50 first, then in falling order down to the smallest. // respond by listing labels in the order requested b, c, a

---

- SYSTEM: human RORγt LBD (Homo sapiens (Human), UniProt P51449)
- ASSAY_METHOD_TEXT: RORγt reporter assay (GAL4-RORγt LBD luciferase in HEK293T cells)
- Assay type: cell-based
- TEST_CONTEXT: HEK-293T, read-out: RORγt reporter Assay, % inhibition @ 6 μM, HEK293T cells, 6 μM
ENDPOINT_LABEL: inhibition at 6 µM (%)

>  <MOLECULE>
COc1nc2ccc(C(O)(c3ccc(C)nc3C)c3cnnn3C)cc2c(C#N)c1Cc1ccc(C(F)(F)F)cc1 (stereo not drawn) [Example 78A]

>  <inhibition at 6 µM / %>
97

$$$$
>  <MOLECULE>
CCOc1nc2ccc(C(O)(c3cncs3)c3cncn3C)cc2c(Cl)c1Cc1ccc(-n2cccn2)cc1 (stereo not drawn)

>  <inhibition at 6 µM / %>
104

$$$$
>  <MOLECULE>
Cn1cncc1C(O)(c1ccc(C(F)(F)F)nc1)c1ccc2nc(C#N)c(Cc3ccc(-n4cccn4)cc3)cc2c1 (single isomer, unassigned) [Example 70B]

>  <inhibition at 6 µM / %>
101

$$$$

---

- Test system: IL-17 production by CD4 T cells
- ASSAY_METHOD_TEXT: Human Th17 assay (IL-17 production by CD4 T cells under Th17 differentiation)
- Type: cell-based
- TEST_CONTEXT: Homo sapiens, CD4+ T, 72 h, human CD4+ T cells, IL-17 after 3 days; read-out: Human Th17 Assay, IC50 μM
ENDPOINT_LABEL: IC50 (µM)

>  <COMPOUND>
COc1nc2ccc(C(O)(c3ccc(Cl)cc3)c3cncn3C)cc2c(Cl)c1Cc1cc2ccccc2s1 (stereo not shown) [Example 36A]

>  <IC50 / µM>
0.1

$$$$

a = CCN(C)c1nc2ccc(C(O)(c3ccc(Cl)cc3)c3cncn3C)cc2c(Cl)c1Cc1ccc(-n2cccn2)cc1 (stereo not shown)
b = COc1nc2c(C)cc(C(O)(c3ccc(Cl)cc3)c3cncn3C)cc2c(Cl)c1Cc1ccc(-n2cccn2)cc1 (single isomer, unassigned) [Example 28C]
c = COc1ccc(C(O)(c2ccc3nc(OC)c(Cc4ccc(-n5cccn5)cc4)c(Cl)c3c2)c2cncs2)cn1 (stereo not shown) [Example 20A]
Exam item: list the entries in increasing order of IC50. // respond by listing labels in the order requested c, b, a

// provenance: patent US9290476B2
